assay: Fe3+ content per 500 mg compound (selection criterion 3); assay type: physicochemical; details: per 500 mg compound; unit mg
Reported Metric: Fe^3+ content per 500 mg compound

>  <Compound>
CCCCC(CC)C(=O)[O-].CCCCC(CC)C(=O)[O-].CCCCC(CC)C(=O)[O-].[Fe+3] (centres unmarked) [ferric octoate]

>  <Fe^3+ content per 500 mg compound>
58 mg

$$$$
>  <Compound>
O=C([O-])/C=C/C(=O)[O-].O=C([O-])/C=C/C(=O)[O-].O=C([O-])/C=C/C(=O)[O-].[Fe+3].[Fe+3] [ferric fumarate]

>  <Fe^3+ content per 500 mg compound>
125 mg

$$$$
>  <Compound>
O=C([O-])CN(CCN(CC(=O)[O-])CC(=O)O)CC(=O)[O-].[Fe+3]

>  <Fe^3+ content per 500 mg compound>
81 mg

$$$$
>  <Compound>
O=C([O-])CC(O)C(=O)[O-].O=C([O-])CC(O)C(=O)[O-].O=C([O-])CC(O)C(=O)[O-].[Fe+3].[Fe+3] (centres unmarked) [ferric malate]

>  <Fe^3+ content per 500 mg compound>
110 mg

$$$$
>  <Compound>
Cc1occc(=O)c1[O-].Cc1occc(=O)c1[O-].Cc1occc(=O)c1[O-].[Fe+3]

>  <Fe^3+ content per 500 mg compound>
65 mg

$$$$
>  <Compound>
O=C([O-])C(=O)[O-].O=C([O-])C(=O)[O-].O=C([O-])C(=O)[O-].[Fe+3].[Fe+3] [ferric oxalate]

>  <Fe^3+ content per 500 mg compound>
142 mg

$$$$

Prompt line: Give reported Fe^3+ content per 500 mg compound value for CC(=O)/C=C(/C)[O-].CC(=O)/C=C(/C)[O-].CC(=O)/C=C(/C)[O-].[Fe+3] [ferric acetylacetonate]
Response line: 78 mg

Prompt line: Give reported Fe^3+ content per 500 mg compound value for O=C([O-])CN(CCO)CCN(CC(=O)[O-])CC(=O)[O-].[Fe+3]
Response line: 85 mg

---

assay: Fe3+ content per 500 mg compound (selection criterion 3); assay type: physicochemical
Tag: Met if measured Fe^3+ content per 500 mg compound is not below 100 mg, Not met if it is.

>  <Molecule>
C[N+](C)(C)CCO.O=C([O-])CC(O)(CC(=O)[O-])C(=O)[O-].[Fe+3] [ferric choline citrate]

>  <Label>
Not met

$$$$
>  <Molecule>
CC(=O)[O-].CC(=O)[O-].CC(=O)[O-].[Fe+3] [ferric acetate]

>  <Label>
Met

$$$$
>  <Molecule>
O=C([O-])[O-].O=C([O-])[O-].O=C([O-])[O-].[Fe+3].[Fe+3] [ferric carbonate]

>  <Label>
Met

$$$$

// switching to the query molecule
Prompt line: Assess whether reported Fe^3+ content per 500 mg compound for O=C[O-].O=C[O-].O=C[O-].[Fe+3] [ferric formate] sits at 100 mg or higher.
Response line: Met
